Recorded measurements of Ki, one per entry
- STUDY_SYSTEM: Procathepsin L (Homo sapiens)
- Sequence (P07711 whole entry): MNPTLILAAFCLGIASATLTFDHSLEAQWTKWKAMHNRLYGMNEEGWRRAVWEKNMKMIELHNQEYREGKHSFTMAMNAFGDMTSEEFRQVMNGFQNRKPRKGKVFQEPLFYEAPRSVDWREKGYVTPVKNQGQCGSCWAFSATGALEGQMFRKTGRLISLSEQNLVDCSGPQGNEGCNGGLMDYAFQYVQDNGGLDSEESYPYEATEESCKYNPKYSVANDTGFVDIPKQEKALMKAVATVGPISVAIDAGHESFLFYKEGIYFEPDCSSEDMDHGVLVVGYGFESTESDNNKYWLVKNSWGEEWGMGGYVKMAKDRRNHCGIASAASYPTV
- TEST: Inhibition of human Cathepsin L
Reply numerically in nM, unit not repeated.

| RECORD_SMILES | OBS_VALUE |
| --- | --- |
| N#Cc1ncc(F)c(N(Cc2ccc3c(c2)OCO3)C2CCCCC2)n1 | 200 |

Read the next record carefully.
Given N#Cc1nc(N2CCOCC2)nc(N(Cc2ccc(Cl)cc2)C2CCCCC2)n1 , state its recorded Ki. 13

----------
- TEST: Lipophilicity, logD of the compound
- Format: physicochemical
- MEASUREMENT_PARAMETERS: octanol/water
RECORDED_METRIC: logD
Format: numeric value only, no unit, no commentary.

Consider the worked cases shown below.
| RECORD_SMILES | logD |
| --- | --- |
| N#Cc1ncc(F)c(N(CCC2CCOCC2)Cc2ccc3c(c2)OCO3)n1 | 3.46 |
| N#Cc1ncc(F)c(N(CCc2ccccn2)Cc2ccc3c(c2)OCO3)n1 | 3.39 |
| N#Cc1ncc(F)c(N(CCc2ccncc2)Cc2ccc3c(c2)OCO3)n1 | 3.15 |

Read the next record carefully.
Given Cc1nc2n(c(=O)c1CCN(Cc1ccc3c(c1)OCO3)c1nc(C#N)ncc1F)CCCC2 , state its recorded logD. 2.96

----------
Recorded measurements of logD, one per entry
- TEST: Lipophilicity, logD of the compound
- Type: physicochemical
- MEASUREMENT_PARAMETERS: octanol/water
Format: numeric value only, no unit, no commentary.

| RECORD_SMILES | logD |
| --- | --- |
| Cc1cc(OCCN(Cc2ccc3c(c2)OCO3)c2nc(C#N)ncc2F)cc(C)c1Cl | 2.32 |
| N#Cc1ncc(F)c(N(Cc2ccc3c(c2)OCO3)C2CCSCC2)n1 | 3.61 |
| N#Cc1ncc(F)c(N(Cc2ccc3c(c2)OCO3)c2ccc(F)cc2)n1 | 3.49 |

Given N#Cc1ncc(F)c(N(Cc2ccc3c(c2)OCO3)c2ccccc2)n1 , state its recorded logD. 3.44

Also check N#Cc1ncc(F)c(N(Cc2ccc3c(c2)OCO3)CC2CC2)n1 3.02

Also check N#Cc1ncc(F)c(N(CCC(F)(F)F)Cc2ccc3c(c2)OCO3)n1 3.16

Also check CC(C)[C@H]1CC[C@@H](N(Cc2ccc3c(c2)OCO3)c2nc(C#N)ncc2F)CC1 2.74

Also check Cc1nsc(N2CCC(N(Cc3ccc4c(c3)OCO4)c3nc(C#N)ncc3F)CC2)n1 3.49

Also check N#Cc1cccc(CCN(Cc2ccc3c(c2)OCO3)c2nc(C#N)ncc2F)c1 2.12

Also check CC1(N(Cc2ccc3c(c2)OCO3)c2nc(C#N)ncc2F)CC1 3.38

----------
- STUDY_SYSTEM: Procathepsin L (Homo sapiens)
- TEST: Inhibition of human Cathepsin L by fluorescence assay based Cheng-Prusoff equation analysis
Recorded measurements of Ki, one per entry

Consider the worked cases shown below.
| RECORD_SMILES | OBS_VALUE |
| --- | --- |
| N#Cc1ncc(F)c(N(Cc2ccc3c(c2)OCO3)[C@H]2CC[C@H](C(F)(F)F)CC2)n1 | > 5100 nM |
| N#Cc1ncc(F)c(N(CCc2cccc(Br)c2)Cc2ccc3c(c2)OCO3)n1 | 358 nM |
| N#Cc1ncc(F)c(N(CCc2ccc(F)cc2)Cc2ccc3c(c2)OCO3)n1 | 279 nM |
| CC1(N(Cc2ccc3c(c2)OCO3)c2nc(C#N)ncc2F)CC1 | > 5100 nM |
| CNCCc1cccc(N(Cc2ccc3c(c2)OCO3)c2nc(C#N)ncc2F)c1 | > 5100 nM |

Read the next record carefully.
Given N#Cc1ncc(F)c(N(Cc2ccc3c(c2)OCO3)c2ccc(OCC(F)(F)F)cc2)n1 , state its recorded Ki. > 5100 nM

Cited source: ChEMBL document CHEMBL4007486
